- System: HaloTag protein
- CONDITION_CONTEXT: 400 MHz, 37° C.
What r2 - PB (transverse relaxivity, protein-bound) was measured for each of the following?
Write the number in mM⁻¹ s⁻¹ without appending the unit.

Task item: Give r2 - PB (transverse relaxivity, protein-bound); test system HaloTag protein; compound `O=C([O-])CN1CCN(CCCCC(=O)NCCOCCOCCCCCCCl)CCN(CC(=O)[O-])CCN(CC(=O)[O-])CC1.[Gd+3]`
Reply: 19.6

Task item: Give r2 - PB (transverse relaxivity, protein-bound); test system HaloTag protein; compound `O=C([O-])CN1CCN(CCC(=O)NCCOCCOCCCCCCCl)CCN(CC(=O)[O-])CCN(CC(=O)[O-])CC1.[Gd+3]`
Reply: 56

Task item: Give r2 - PB (transverse relaxivity, protein-bound); test system HaloTag protein; compound `O=C([O-])CN1CCN(CCCC(=O)NCCOCCOCCCCCCCl)CCN(CC(=O)[O-])CCN(CC(=O)[O-])CC1.[Gd+3]`
Reply: 15.9

Task item: Give r2 - PB (transverse relaxivity, protein-bound); test system HaloTag protein; compound `O=C([O-])CN1CCN(CC(=O)[O-])CCN(CC(=O)NCCOCCOCCCCCCCl)CCN(CC(=O)[O-])CC1.[Gd+3]`
Reply: 28

----------
- PROCEDURE_TEXT: Relaxivity determination of free (unbound) contrast agents
- Assay type: physicochemical
- CONDITION_CONTEXT: 400 MHz, 37° C.
What r1 - F (longitudinal relaxivity, free) was measured for each of the following?
Write the number in mM⁻¹ s⁻¹ without appending the unit.

Task item: Provide measured r1 - F (longitudinal relaxivity, free) value, entry: `O=C([O-])CN1CCN(CC(=O)[O-])CCN(CC(=O)NCCOCCOCCCCCCCl)CCN(CC(=O)[O-])CC1.[Gd+3]`
Reply: 3.2

Task item: Provide measured r1 - F (longitudinal relaxivity, free) value, entry: `O=C([O-])CN1CCN(CCC(=O)NCCOCCOCCCCCCCl)CCN(CC(=O)[O-])CCN(CC(=O)[O-])CC1.[Gd+3]`
Reply: 3.3

Task item: Provide measured r1 - F (longitudinal relaxivity, free) value, entry: `O=C([O-])CN1CCN(CCCC(=O)NCCOCCOCCCCCCCl)CCN(CC(=O)[O-])CCN(CC(=O)[O-])CC1.[Gd+3]`
Reply: 6.0

Task item: Provide measured r1 - F (longitudinal relaxivity, free) value, entry: `O=C([O-])CN1CCN(CCCCC(=O)NCCOCCOCCCCCCCl)CCN(CC(=O)[O-])CCN(CC(=O)[O-])CC1.[Gd+3]`
Reply: 5.6

----------
What r1 - PB (longitudinal relaxivity, protein-bound) was measured for each of the following?
- Test system: HaloTag protein
- CONDITION_CONTEXT: 400 MHz, 37° C.
- Experimental: The HaloTag protein was expressed recombinantly after subcloning the target protein into the vector pMCSG7 to include an N-terminal His6-Tag followed by a TEV protease cleavage site. […] Longitudinal relaxivities of the unbound agents were determined in water and the protein-bound contrast agents in 10 mM MOPS at 1.5 T, 37_C (Table 1). […] The relaxation rates and Gd(III) concentrations were determined for contrast agent solutions in a range of concentrations. […]
Answers without a unit are incomplete; give the number and then its unit.

Task item: Give r1 - PB (longitudinal relaxivity, protein-bound); test system HaloTag protein; molecule `O=C([O-])CN1CCN(CCCCC(=O)NCCOCCOCCCCCCCl)CCN(CC(=O)[O-])CCN(CC(=O)[O-])CC1.[Gd+3]`
Reply: 3.3 ± 0.2 mM⁻¹ s⁻¹

Task item: Give r1 - PB (longitudinal relaxivity, protein-bound); test system HaloTag protein; molecule `O=C([O-])CN1CCN(CCC(=O)NCCOCCOCCCCCCCl)CCN(CC(=O)[O-])CCN(CC(=O)[O-])CC1.[Gd+3]`
Reply: 5.1 ± 0.7 mM⁻¹ s⁻¹

Task item: Give r1 - PB (longitudinal relaxivity, protein-bound); test system HaloTag protein; molecule `O=C([O-])CN1CCN(CC(=O)[O-])CCN(CC(=O)NCCOCCOCCCCCCCl)CCN(CC(=O)[O-])CC1.[Gd+3]`
Reply: 4.0 ± 0.2 mM⁻¹ s⁻¹

Task item: Give r1 - PB (longitudinal relaxivity, protein-bound); test system HaloTag protein; molecule `O=C([O-])CN1CCN(CCCC(=O)NCCOCCOCCCCCCCl)CCN(CC(=O)[O-])CCN(CC(=O)[O-])CC1.[Gd+3]`
Reply: 2.7 ± 0.1 mM⁻¹ s⁻¹

----------
- PROCEDURE_TEXT: Relaxivity determination of free (unbound) contrast agents
- Format: physicochemical
- CONDITION_CONTEXT: 60 MHz, 37° C.
ATTRIBUTE_MEASURED: r2 - F (transverse relaxivity, free) (mM⁻¹ s⁻¹)
Write the number in mM⁻¹ s⁻¹ without appending the unit.

Task item: Provide measured r2 - F (transverse relaxivity, free) value, entry: O=C([O-])CN1CCN(CCC(=O)NCCOCCOCCCCCCCl)CCN(CC(=O)[O-])CCN(CC(=O)[O-])CC1.[Gd+3] [2CHTGd]
Reply: 3.9

Task item: Provide measured r2 - F (transverse relaxivity, free) value, entry: O=C([O-])CN1CCN(CCCC(=O)NCCOCCOCCCCCCCl)CCN(CC(=O)[O-])CCN(CC(=O)[O-])CC1.[Gd+3] [3CHTGd]
Reply: 5.8

Task item: Provide measured r2 - F (transverse relaxivity, free) value, entry: O=C([O-])CN1CCN(CC(=O)[O-])CCN(CC(=O)NCCOCCOCCCCCCCl)CCN(CC(=O)[O-])CC1.[Gd+3] [1CHTGd]
Reply: 4.1

Task item: Provide measured r2 - F (transverse relaxivity, free) value, entry: O=C([O-])CN1CCN(CCCCC(=O)NCCOCCOCCCCCCCl)CCN(CC(=O)[O-])CCN(CC(=O)[O-])CC1.[Gd+3] [4CHTGd]
Reply: 6.5

----------
- System: HaloTag protein
- CONDITION_CONTEXT: 60 MHz, 37° C.
- Description: The HaloTag protein was expressed recombinantly after subcloning the target protein into the vector pMCSG7 to include an N-terminal His6-Tag followed by a TEV protease cleavage site. […] Longitudinal relaxivities of the unbound agents were determined in water and the protein-bound contrast agents in 10 mM MOPS at 1.5 T, 37_C (Table 1). […] The relaxation rates and Gd(III) concentrations were determined for contrast agent solutions in a range of concentrations. […]
ATTRIBUTE_MEASURED: r2 - PB (transverse relaxivity, protein-bound) (mM⁻¹ s⁻¹)
Write the number in mM⁻¹ s⁻¹ without appending the unit.

Task item: Give r2 - PB (transverse relaxivity, protein-bound); test system HaloTag protein; compound `O=C([O-])CN1CCN(CC(=O)[O-])CCN(CC(=O)NCCOCCOCCCCCCCl)CCN(CC(=O)[O-])CC1.[Gd+3]`
Reply: 25.2

Task item: Give r2 - PB (transverse relaxivity, protein-bound); test system HaloTag protein; compound `O=C([O-])CN1CCN(CCCC(=O)NCCOCCOCCCCCCCl)CCN(CC(=O)[O-])CCN(CC(=O)[O-])CC1.[Gd+3]`
Reply: 13.1

Task item: Give r2 - PB (transverse relaxivity, protein-bound); test system HaloTag protein; compound `O=C([O-])CN1CCN(CCCCC(=O)NCCOCCOCCCCCCCl)CCN(CC(=O)[O-])CCN(CC(=O)[O-])CC1.[Gd+3]`
Reply: 15.9

Task item: Give r2 - PB (transverse relaxivity, protein-bound); test system HaloTag protein; compound `O=C([O-])CN1CCN(CCC(=O)NCCOCCOCCCCCCCl)CCN(CC(=O)[O-])CCN(CC(=O)[O-])CC1.[Gd+3]`
Reply: 45.3
